Molecular target: Lysine-specific demethylase 4C (Homo sapiens)
Experiment: KDM4C H3K9me3 demethylation inhibition – biochemical, single concentration HTS, primary screen (AID 720574)
Details: GST-KDM4C 2-372, H3K9me3 peptide, LANCE TR-FRET; at 12.5 µM; hits give high values
Hit rate of the full screen: of about 96,000 compounds, about 140 (0.15%) were called active. Only a selection was taken, and actives are over-represented in it overall.
Listing: inhibition of selected compounds
Express your answer in %, writing the number without its unit.

| structure | inhibition [%] |
| --- | --- |
| O=C(C[C@H]1C=C[C@H](NC(=O)C2CCC2)[C@H](CO)O1)NCCCN1CCOCC1 | 1.01 |

Fill blank: measured inhibition of the compound `O=C(NCc1ccncn1)[C@@H]1[C@@H](CO)[C@@H]2Cn3c(ccc(-c4ccc(F)cc4)c3=O)[C@@H]2N1CC1CC1` is ____.
12.7

Can you share its inhibition? I mean this compound: `Cc1ccc(S(=O)(=O)NCC[C@H]2CC[C@H](NC(=O)c3ccccn3)[C@H](CO)O2)cc1`
-1.29

* * *

Molecular target: Lysine-specific demethylase 4C (Homo sapiens)
Assay: KDM4C H3K9me3 demethylation inhibition – biochemical, single concentration HTS, primary screen (AID 720574)
Conditions: GST-KDM4C 2-372, H3K9me3 peptide, LANCE TR-FRET; at 12.5 µM
In all, about 96,000 compounds went through this assay and about 140 (0.15%) were called active.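 Rule for the calls: active = mean replicate inhibition above about 25%, with at least 55% of replicates also reaching it (limit read from the data, passing the limit was not always enough); inconclusive = only one of those two conditions met; inactive = neither condition met.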 Many of the other results were omitted from the sample, so actives are more common in it than they were.
Give your call using only these classes: active, inactive

| structure | cat |
| --- | --- |
| COCC(=O)N1[C@H](CO)[C@H](c2ccccc2)C12CN(C(=O)NC1CCCCC1)C2 | inactive |
| Cc1noc(C)c1S(=O)(=O)N(C)C[C@H]1OCCCC[C@H](C)Oc2ccc(NS(=O)(=O)c3ccccc3)cc2C(=O)N([C@H](C)CO)C[C@@H]1C | inactive |

Moving on to another molecule below.
In this assay, the call recorded for `C[C@H](CO)N1C[C@H](C)[C@@H](CN(C)Cc2ccc(Oc3ccccc3)cc2)Oc2ccc(NS(=O)(=O)c3ccc(F)cc3)cc2CC1=O` was what?
inactive

* * *

Target: Lysine-specific demethylase 4C (Homo sapiens) (UniProt Q9H3R0)
Sequence (Q9H3R0 2-372 limits assumed): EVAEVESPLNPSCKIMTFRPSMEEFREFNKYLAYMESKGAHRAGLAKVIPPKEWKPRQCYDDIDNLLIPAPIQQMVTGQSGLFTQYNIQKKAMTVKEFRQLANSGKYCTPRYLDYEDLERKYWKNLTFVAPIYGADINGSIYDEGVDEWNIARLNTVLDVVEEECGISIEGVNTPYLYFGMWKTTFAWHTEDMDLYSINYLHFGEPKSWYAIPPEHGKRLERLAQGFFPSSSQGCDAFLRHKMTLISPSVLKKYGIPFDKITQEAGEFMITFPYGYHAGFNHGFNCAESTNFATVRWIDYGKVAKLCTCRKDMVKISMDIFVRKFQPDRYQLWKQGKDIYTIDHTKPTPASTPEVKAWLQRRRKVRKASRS
Assay: KDM4C H3K9me3 demethylation inhibition – biochemical, single concentration HTS, primary screen (AID 720574)
Conditions: GST-KDM4C 2-372, H3K9me3 peptide, LANCE TR-FRET; at 12.5 µM; hits give high values
The whole screen tested about 96,000 compounds, of which about 140 (0.15%) were called active. The sample as a whole holds a higher share of actives than the screen did.
Reported inhibition by item:

Please review the entries below; each comes with its answer.
| structure | inhibition |
| --- | --- |
| O=C(Nc1ccccc1F)N1CC(=O)N2[C@H](C1)[C@H](c1ccc(C#Cc3ccc(F)cc3)cc1)[C@@H]2CO | 1.34% (inactive) |
| CCC(=O)Nc1ccc2c(c1)C(=O)N(C)C[C@@H](OC)[C@@H](C)CN(C(=O)CN(C)C)[C@@H](C)CO2 | 1.55% (inactive) |
| CCC(=O)Nc1ccc2c(c1)C(=O)N(C)[C@H]1CC[C@H](CC(=O)NCCOC)O[C@@H]1CO2 | 1.02% (inactive) |
| COc1ccc(S(=O)(=O)N[C@@H]2CC[C@@H](CC(=O)N3CCC(Cc4ccccc4)CC3)O[C@@H]2CO)cc1 | -0.232% (inactive) |
| CCC(=O)Nc1ccc2c(c1)C(=O)N(C)C[C@H](OC)[C@H](C)CN(CCC(F)(F)F)[C@H](C)CO2 | -0.234% (inactive) |

What value of inhibition has been recorded for this entry: `C/C=C/c1ccc([C@H]2[C@@H](CO)N(C(=O)C3CC3)[C@@H]2CNC(=O)NC(C)C)cc1`
0.927% (inactive)

// query inhibition value for entry `CN(C)Cc1cn(CC[C@H]2CC[C@@H](NS(=O)(=O)c3ccccc3)[C@H](CO)O2)nn1`
0.714% (inactive)

Find the recorded inhibition belonging to `CCC(=O)N(C)C[C@H]1Oc2ncc(-c3ccccc3OC)cc2C(=O)N([C@H](C)CO)C[C@H]1C` and report it.
17.4% (inactive)

Field request: inhibition | item: `O=C(C1CCCC1)N1CC(=O)N2[C@@H](CO)[C@H](c3ccc(C#CC4CCCC4)cc3)[C@@H]2C1`
0.0785% (inactive)

Please report the recorded inhibition for `COc1ccc(C#Cc2ccc([C@H]3[C@H]4CN(C(=O)c5ccncc5)CC(=O)N4[C@H]3CO)cc2)cc1` .
-3.07% (inactive)

So what's the measured inhibition for this one? `O=C(c1ccc2c(c1)OCO2)N1CC(=O)N2[C@H](C1)[C@@H](c1ccc(C#Cc3ccccc3)cc1)[C@@H]2CO`
-2.3% (inactive)

Dear colleague, I am looking for the recorded inhibition of the following compound: `COCC#Cc1ccc([C@H]2[C@H](CO)N3C(=O)CN(C(=O)Nc4ccccc4F)C[C@@H]23)cc1`
0.262% (inactive)

Field request: inhibition | item: `CN1CCN(C(=O)C[C@@H]2CC[C@@H]3[C@@H](COc4ccc(NC(=O)c5ccc(F)c(F)c5)cc4C(=O)N3C)O2)CC1`
-0.587% (inactive)

* * *

Biological target: Lysine-specific demethylase 4C (Homo sapiens) (UniProt Q9H3R0)
Assay: KDM4C H3K9me3 demethylation inhibition – biochemical, single concentration HTS, primary screen (AID 720574)
Conditions: GST-KDM4C 2-372, H3K9me3 peptide, LANCE TR-FRET; at 12.5 µM; hits give high values
Screen size: about 96,000 compounds; about 140 (0.15%) were called active. The list comes from a sample in which actives are over-represented; it also holds close analogues and randomly drawn compounds.
readout kind: inhibition (%)
Quick note: give the figure in %, leave out the unit.

Answered examples (2):
| structure | number |
| --- | --- |
| CO[C@@H]1CN(C)C(=O)c2cc(NC(=O)c3cccc(Oc4ccccc4)c3)ccc2OC[C@H](C)NC[C@@H]1C | -0.467 |
| C[C@H]1CCCCO[C@@H](CN(C)C(=O)Nc2cccc3ccccc23)[C@@H](C)CN([C@@H](C)CO)C(=O)c2cc(NS(=O)(=O)c3cn(C)cn3)ccc2O1 | -7.92 |

Returns the measured inhibition for the input compound. Input: `COc1ccc2c3c(n(C)c2c1)[C@H](CO)NCC31CCN(C(=O)Nc2ccccc2F)CC1`
0.753

Using the record for `COc1ccc2c3c(n(C)c2c1)[C@@H](CO)N(C(=O)CN1CCOCC1)CC31CN(C(=O)CC2CC2)C1` , report its inhibition.
-1.48

inhibition lookup needed for `C/C=C/c1ccc2c(c1)O[C@@H](CN(C)C(=O)NC1CCCC1)[C@@H](C)CN([C@H](C)CO)S2(=O)=O` , thanks.
0.88

Reported inhibition, compound `O=C(C[C@@H]1CC[C@@H]2[C@H](COC[C@H](O)CN2Cc2cccc(-c3ccncc3)c2)O1)N1CCOCC1` : ____
-0.984

Quick one: inhibition of `CN1[C@@H]2CN(C(=O)C3CCCCC3)c3ccccc3[C@@H]2[C@@H]1CO` ?
4.33

I have this compound here, `CN(C)C(=O)C[C@@H]1CC[C@H](NC(=O)NC2CCCCC2)[C@@H](CO)O1` , and I need its recorded inhibition.
-0.283

* * *

Catalogue of inhibition values
Biological target: Lysine-specific demethylase 4C (Homo sapiens)
Experiment: KDM4C H3K9me3 demethylation inhibition – biochemical, single concentration HTS, primary screen (AID 720574)
Conditions: GST-KDM4C 2-372, H3K9me3 peptide, LANCE TR-FRET; at 12.5 µM; hits give high values
The whole screen tested about 96,000 compounds, of which about 140 (0.15%) were called active. Only a selection was taken, and actives are over-represented in it overall.
Note: unit % is implicit; provide only the numeric part.

# count of solved cases: 4
| compound | inhibition [%] |
| --- | --- |
| Cc1ccccc1S(=O)(=O)N1[C@H](CO)[C@@H](c2ccc(-c3ccccc3)cc2)[C@@H]1C#N | -3.67 |
| O=C(C1CCC1)N1C[C@@H]2N[C@H](C1)C2c1ccc(-c2cncnc2)cc1 (stereo partly specified) | 0.917 |
| COc1ccccc1CNC(=O)C[C@H]1C[C@@H]2c3cc(NC(=O)Nc4ccccc4F)ccc3O[C@@H]2[C@H](CO)O1 | -9.36 |
| C[C@H]1CCCCO[C@H](CN(C)C(=O)Nc2ccc(F)cc2)[C@@H](C)CN([C@@H](C)CO)C(=O)c2cc(NC(=O)CCC(F)(F)F)ccc2O1 | 1.63 |

Record lookup: for Lysine-specific demethylase 4C (Homo sapiens), what inhibition belongs to `O=C(C[C@H]1CC[C@@H]2[C@H](COC[C@H](O)CN2Cc2ccccc2F)O1)NC1CCC1` ?
1.48

Recorded inhibition for `COc1ccc(NC(=O)N(C)C[C@@H]2Oc3ccc(NS(=O)(=O)c4ccc(C)cc4)cc3CC(=O)N([C@@H](C)CO)C[C@H]2C)cc1` with Lysine-specific demethylase 4C (Homo sapiens), please?
6.92

Recorded inhibition for `CCCC#Cc1ccc([C@H]2[C@H](CO)N3C(=O)CN(C(=O)c4ccc(F)cc4)C[C@@H]23)cc1` with Lysine-specific demethylase 4C (Homo sapiens), please?
0.883

Which inhibition is reported with Lysine-specific demethylase 4C (Homo sapiens) for this entry: `COc1cccc(-c2ccc([C@@H]3[C@@H](CO)N4C(=O)CN(C(=O)C5CCCCC5)C[C@H]34)cc2)c1` ?
-0.874

Record lookup: for Lysine-specific demethylase 4C (Homo sapiens), what inhibition belongs to `CCCN1C[C@H](C)[C@@H](OC)CN(C)C(=O)c2ccc(NC(=O)CC)cc2OC[C@@H]1C` ?
2.58
